The reported measurements were obtained from patent US20260008847A1.

Target: T1, Human LILRB2 stably expressed on EL4 cells (EL4/LILRB2) (human, UniProt Q8N423 22-597)
T1 construct: also called EL4-LILRB2 cells; cell membrane human LILRB2
T1 sequence (Q8N423 22-597 limits assumed): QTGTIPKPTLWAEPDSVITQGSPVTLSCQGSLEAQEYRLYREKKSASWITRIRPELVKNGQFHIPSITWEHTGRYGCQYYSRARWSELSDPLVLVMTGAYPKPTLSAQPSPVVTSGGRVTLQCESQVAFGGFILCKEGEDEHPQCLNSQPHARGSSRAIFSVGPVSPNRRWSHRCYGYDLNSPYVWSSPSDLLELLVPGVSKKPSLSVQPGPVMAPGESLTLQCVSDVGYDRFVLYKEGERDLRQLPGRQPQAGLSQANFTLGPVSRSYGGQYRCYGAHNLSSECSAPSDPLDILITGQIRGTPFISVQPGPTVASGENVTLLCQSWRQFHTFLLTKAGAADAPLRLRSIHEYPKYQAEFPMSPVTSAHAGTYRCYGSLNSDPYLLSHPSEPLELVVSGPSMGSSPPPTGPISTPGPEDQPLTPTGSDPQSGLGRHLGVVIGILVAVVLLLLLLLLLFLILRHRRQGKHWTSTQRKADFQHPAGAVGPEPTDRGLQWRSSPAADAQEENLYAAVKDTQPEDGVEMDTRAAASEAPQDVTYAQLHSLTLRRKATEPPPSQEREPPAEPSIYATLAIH
Assay: FACS on EL4/LILRB2 cells
pEC50: −log10 of the molar value.
MEASURED QUANTITY: pEC50

hu043.06 (antibody, V domains shown, Humanized human IgG4 antibody with S228P in the constant region; also called hu043VH8 / hu043VL2) VH: QVQLQQSGAEVKKPGASVKLSCKASGYTFTSYWMYWVRQRPGQGLEWIGHINPSSGYTKYNQKFKDRATLTADTSTSTAYMELSSLRSEDTAVYYCARDPNWDNYWGQGTTVTVSS VL: DIQMTQSPSSLSASVGDRVTITCKASQDVSIAVAWYQQKPGKAPKLLIYSASYRYTGVPSRFSGSGSGTDFTFTISSLQPEDIATYYCQQHYSTPYTFGGGTKLEIK: 9.40
hu043.02 (antibody, V domains shown, Humanized human IgG4 antibody with S228P in the constant region; also called hu043VH7 / hu043VL4) VH: QVQLVQSGAEVKKPGASVKVSCKASGYTFTSYWMYWVRQAPGQGLEWIGHINPSSGYTKYNQKFKDRVTMTADTSTSTVYMELSSLRSEDTAVYYCARDPNWDNYWGQGTTVTVSS VL: DIVMTQSPSSLSASVGDRVSITCKASQDVSIAVAWYQQKPGKAPKLLIYSASYRYTGVPDRFSGSGSGTDFTFTISSLQPEDIATYYCQQHYSTPYTFGGGTKLEIK: 9.46
